normalized growth values, listed per item
- method: chemical genetic growth profiling, strain panel (AID 1159580);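 note: tested at 20 µM; growth read once vehicle control cultures reached saturation at 30 °C; 1 = growth at the plate median or of vehicle wells; lower values mean less growth of the strain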
- measurement.setup: S. cerevisiae deletion strains, growth OD, locus YDL101C, strain DUN1, active compounds read low
Out of some 5,500 compounds screened, about 2,000 (36%) were called active. Inconclusive results (about 18%) are left out. This is one part of the list.
value.kind: normalized growth

>  <molecule>
C[C@]12CCC(=O)C=C1CCC1C2[C@@H](O)C[C@@]2(C)C1CC[C@]2(O)C(=O)CO (stereo not given in full)

>  <reported.measurement>
1.02

$$$$
>  <molecule>
COC(=O)C[C@H]1C(C)(C)C(=O)[C@@H]2CC3C4=CC(=O)O[C@@H](c5ccoc5)[C@]4(C)CCC3[C@@]1(C)C2=O (stereo not given in full)

>  <reported.measurement>
0.987

$$$$
>  <molecule>
Cc1cc(O)cc(C)c1Cl

>  <reported.measurement>
1.01

$$$$
>  <molecule>
CCC(C)C(NC)C(=O)O (stereo not given)

>  <reported.measurement>
0.983

$$$$
>  <molecule>
CC(=O)NC(C(=O)O)C(C)(C)SN=O (stereo not given)

>  <reported.measurement>
1

$$$$

###

- method: chemical genetic growth profiling, strain panel (AID 1159580)
- measurement.setup: S. cerevisiae deletion strains, growth OD, locus YLR342W, strain FKS1 (second series), active compounds read low
About 2,000 (36%) of roughly 5,500 compounds were called active. About 18% were inconclusive and are not listed. The list shows a part of the results. Where a SMILES comes first, the peptide text is derived from it. The star is where a group is joined. For = O=C*

>  <molecule>
Nc1ccccc1C(=O)CC(N)C(=O)O (configuration not stated)

>  <normalized growth>
1.02

$$$$
>  <molecule>
OC(CCN1CCCC1)(c1ccccc1)C1CCCCC1 (configuration not stated)

>  <normalized growth>
0.992

$$$$
>  <molecule>
Nc1ccc(S(=O)(=O)c2ccc(N)cc2)cc1

>  <normalized growth>
1.03

$$$$
>  <molecule>
Cc1ccnc(NS(=O)(=O)c2ccc(N)cc2)n1

>  <normalized growth>
1

$$$$
>  <molecule>
C/C=C1\[C@H]2C=C(C)C[C@]1(N)c1ccc(=O)[nH]c1C2

>  <normalized growth>
1.04

$$$$
>  <molecule>
CSCCC(NC=O)C(=O)NC(Cc1ccccc1)C(=O)O (stereo not drawn) (For-Met-Phe-OH; configuration not given here)

>  <normalized growth>
1.03

$$$$
>  <molecule>
COc1ccc2c(c1)c(CC(=O)OCC(=O)O)c(C)n2C(=O)c1ccc(Cl)cc1

>  <normalized growth>
1.02

$$$$

###

normalized growth values, listed per item
- method: chemical genetic growth profiling, strain panel (AID 1159580);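 note: tested at 20 µM; growth read once vehicle control cultures reached saturation at 30 °C; 1 = growth at the plate median or of vehicle wells; lower values mean less growth of the strain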
- measurement.setup: S. cerevisiae deletion strains, growth OD, locus YOL147C, strain pex11, active compounds read low
Out of some 5,500 compounds screened, about 2,000 (36%) were called active. Inconclusive results (about 18%) are left out. Some of the results follow.
value.kind: normalized growth

>  <compound>
C#C[C@]1(O)CCC2C3CCC4=CC(=O)CC[C@@H]4C3CC[C@@]21C (stereo not given in full)

>  <reported.measurement>
0.983

$$$$
>  <compound>
CCC(C)C(NC)C(=O)O (stereo not given)

>  <reported.measurement>
0.976

$$$$
>  <compound>
N#CC(O[C@@H]1O[C@H](CO[C@@H]2O[C@H](CO)[C@@H](O)[C@H](O)[C@H]2O)[C@@H](O)[C@H](O)[C@H]1O)c1ccccc1 (stereo not given in full)

>  <reported.measurement>
0.989

$$$$
>  <compound>
C#C[C@]1(O)CCC2C3CCC4=C(CCC(=O)C4)C3CC[C@@]21C (stereo not given in full)

>  <reported.measurement>
1.01

$$$$
>  <compound>
C/C=C1\[C@H]2C=C(C)C[C@]1(N)c1ccc(=O)[nH]c1C2

>  <reported.measurement>
1.01

$$$$

###

normalized growth values, listed per item
- method: chemical genetic growth profiling, strain panel (AID 1159580);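 note: tested at 20 µM; growth read once vehicle control cultures reached saturation at 30 °C; 1 = growth at the plate median or of vehicle wells; lower values mean less growth of the strain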
- measurement.setup: S. cerevisiae deletion strains, growth OD, locus YBR231C, strain swc5, active compounds read low
The campaign covered roughly 5,500 compounds. About 2,000 (36%) were called active. About 18% were inconclusive and are not listed. This is one part of the list.

>  <molecule>
CC1(C)CC[C@]2(C)CC[C@]3(C)C(=CCC4[C@@]5(C)CC[C@H](O)C(C)(C)C5CC[C@]43C)C2C1 (stereo not given in full)

>  <normalized growth>
1

$$$$
>  <molecule>
COc1c(-c2coc3cc4c(cc3c2=O)CC(O)C(C)(C)O4)ccc2c1C=CC(C)(C)O2 (stereo not given)

>  <normalized growth>
0.989

$$$$
>  <molecule>
CC1=NS(=O)(=O)c2cc(Cl)ccc2N1

>  <normalized growth>
0.995

$$$$
>  <molecule>
COC1=C[C@@H]2[C@@H]3Cc4ccc(OC)c(O)c4[C@]2(CCN3C)CC1=O

>  <normalized growth>
0.995

$$$$
>  <molecule>
CC(C)(C#N)O[C@@H]1O[C@H](CO)[C@@H](O)[C@H](O)[C@H]1O

>  <normalized growth>
0.998

$$$$

###

- method: chemical genetic growth profiling, strain panel (AID 1159580);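 note: tested at 20 µM; growth read once vehicle control cultures reached saturation at 30 °C; 1 = growth at the plate median or of vehicle wells; lower values mean less growth of the strain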
- measurement.setup: S. cerevisiae deletion strains, growth OD, locus YAL013W, strain DEP1, active compounds read low
Among all 5,500 compounds or so, about 2,000 (36%) were called active. About 18% were inconclusive and are not listed. This is one part of the list.
value.kind: normalized growth

>  <molecule>
CCN1CCC[C@H]1CNC(=O)c1cc(S(N)(=O)=O)ccc1OC

>  <reported.measurement>
1.02

$$$$
>  <molecule>
O=c1cc(CO)occ1O

>  <reported.measurement>
1.02

$$$$
>  <molecule>
CCOC(=O)NC(=O)c1cn(Cc2cccs2)c(=O)[nH]c1=O

>  <reported.measurement>
0.999

$$$$
>  <molecule>
S=C(NCc1cccnc1)Nc1ccccc1Cl

>  <reported.measurement>
0.987

$$$$
>  <molecule>
CCOP(=S)(OCC)Oc1cc(C)nc(C(C)C)n1

>  <reported.measurement>
0.978

$$$$
>  <molecule>
COc1ccc2c3c([nH]c2c1)C(C)=NCC3

>  <reported.measurement>
1.01

$$$$
>  <molecule>
Cc1ccc(-c2cc(C(F)(F)F)nn2-c2ccc(S(N)(=O)=O)cc2)cc1

>  <reported.measurement>
1

$$$$
>  <molecule>
CCc1cc2c(cc1C(=O)CC1(O)C(=O)Nc3ccc(Br)cc31)C(C)(C)CCC2(C)C (stereo unspecified)

>  <reported.measurement>
1.01

$$$$
>  <molecule>
COC(=O)Nc1nc2ccc(Sc3ccccc3)cc2[nH]1

>  <reported.measurement>
1

$$$$
>  <molecule>
Cc1cc(O)c2c(c1)Cc1cccc(O)c1C2=O

>  <reported.measurement>
0.978

$$$$
>  <molecule>
CC(=O)NCc1c(I)c(NC(C)=O)c(I)c(C(=O)O)c1I

>  <reported.measurement>
0.997

$$$$
>  <molecule>
Cc1cccc(NC(=S)NCc2ccncc2)c1

>  <reported.measurement>
1

$$$$
>  <molecule>
Cc1cc(C(C)(C)C)c(O)c(C(C)(C)C)c1

>  <reported.measurement>
0.985

$$$$
>  <molecule>
c1cc2c(cc1N=C1SCC3CCCCN13)OCO2 (stereo unspecified)

>  <reported.measurement>
1

$$$$
>  <molecule>
CC(OCc1ccccc1)C(NC(=O)OC(C)(C)C)C(N)=O (stereo unspecified)

>  <reported.measurement>
0.998

$$$$
>  <molecule>
C=C1SC(=Nc2cccc(OC)c2)N(C(=O)C(c2ccccc2)C2CCCC2)C1(C)C (stereo unspecified)

>  <reported.measurement>
1.01

$$$$
